meta.source: patent US20250368734A1

biological target: T1, human GPRC5D (human, UniProt Q9NZD1 1-345); experiment: FACS, OPM-2 cells
T1 construct: whole, on cells; also called hGPRC5D; G-protein coupled receptor family C group 5 member D
T1 sequence (Q9NZD1 whole entry): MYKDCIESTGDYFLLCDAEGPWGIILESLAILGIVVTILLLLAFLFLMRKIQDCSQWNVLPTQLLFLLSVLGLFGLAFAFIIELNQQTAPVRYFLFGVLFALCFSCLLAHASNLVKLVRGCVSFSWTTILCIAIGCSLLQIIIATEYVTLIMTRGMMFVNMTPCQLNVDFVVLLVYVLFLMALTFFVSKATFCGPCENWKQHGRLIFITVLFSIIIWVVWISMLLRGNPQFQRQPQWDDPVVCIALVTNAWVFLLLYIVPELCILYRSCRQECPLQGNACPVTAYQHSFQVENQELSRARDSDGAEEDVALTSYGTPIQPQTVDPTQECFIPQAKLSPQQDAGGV
PROPERTY_NAME: MFI
Answers are plain numbers.

Consider the following illustrative entries.
Q. Please look up its MFI: 90G6H3 (antibody, V domains shown, Mouse monoclonal antibody from hybridoma subclone) VH: QAYLQQSGAELVRSGASVKMSCKASGYTFTSYIMHWVKQTPGQGLEWIGYIYPGNGGTNYNQKFKDKATLSADTSSSTAYMQINSLTSEDSAVYFCARWGLRQGFAYWGQGTLVSVSA VL: DIVMTQSQKFMSTSVGDRVSVTCKASQNVGGNVAWYQQKPGQSPKALIYSTSYRNSGVPDRFTGSGSGTDFTLTISNVQSEDLAEYFCQQYNSYPFTFGSGTKLEIR
A. 712

Q. Please look up its MFI: 101B3G3 (antibody, V domains shown, Mouse monoclonal antibody from hybridoma subclone) VH: EVQLQQSGPELVKPGASMKISCKASGYSFTGYTMNWVKQSHGKNLEWIGLINPYNGGTRYNQKFKDKATLTVDKSSSTAYMELLSLTSEDSAVYYCARWLLRYAMDYWGQGTSVTVSS VL: DIVMTQSQKFMSTSVGDRVSITCKASQNVGNAVAWYQQKPGHSPKLLISSASNRKNGVPDRFTGSGSGTDFTLTVSNMQSEDLADYFCQQYSDSSWTFGGGTKLEIK
A. 1370

Q. Please look up its MFI: 36A3G8 (antibody, V domains shown, Mouse monoclonal antibody from hybridoma subclone) VH: QVQLQQSGAELARPGASVKMSCKASGYTFTTYTMHWIKQRPGQDLEWIGFINPSSGYTKYNQNFKDKATLTADKSSTTAYMQLNSLTSEDSAVYYCASPYGNIYFDVWGTGTTVTVSS VL: DIVMTQSQKFMSTAVGDRVSITCKASQNVGTAVAWYQQKPGQSPKLLIYSASNRYTGVPDRFTGSGSGTDFTLTISNMQSEDLADYFCQQYSSYPLTFGAGTKLELK
A. 791

Q. Please look up its MFI: 82A1C10 (antibody, V domains shown, Mouse monoclonal antibody from hybridoma subclone) VH: QVQLKESGPGLVAPSQSLSITCTVSGFSLTNYAVTWVRQPPGKGLEWLGVIWGDGSTYYHSALVSRLSITKDNSRTQVLLKLNSLQTDDTARYYCAKGGYSPFAYWGQGTLVTVSA VL: DVVMTQTPLSLPVSLGDQASISCRSSQSLVHSNGNTYLHWYLQKPGQSPKLLIFKVSNRFSGVPDRFSGSGSGTDFTLKISRVEAEDLGVYFCSQNTHVPFTFGSGTKLEIK
A. 550

Now consider the entry below.
Q. Please look up its MFI: 26E2H6 (antibody, V domains shown, Mouse monoclonal antibody from hybridoma subclone) VH: EVQLVESGGDLVKPGGSLKLSCAASGFTFSSYGMSWVRQTPDKRLEWVATISSGGSYTYYPDSVKGRFTISRDNAKNTLYLQMSSLKSEDTAMYYCARHATDYWGQGTTLTVSS VL: QIVLTQSPAIMSASPGEKVTMTCSASSSVSYMHWYQQKSGTSPKRWIYDTSKLASGVPARFSGSGSGTSYSLTISSMEAEDAATYYCQQWSSNPLTFGAGTKLELK
A. 1150
